Reference for the values: paper PMC11763264

System: K. pneumoniae (ATCC BAA-1705)
Test: microbe, parasite or virus in culture
Type: cell-based, Klebsiella pneumoniae
Settings: ATCC BAA-1705, 24 h
Non-standard residues stand in square brackets, D forms with d. Residues, ends and D or L forms follow the SMILES beside them. Dip = N[C@H](C(=O)O)C(c1ccccc1)c1ccccc1
measurement type: MIC
Field note: include the unit after the figure.

Ask | Provide MIC value for the following molecule: N=C(N)NCCC[C@H](NC(=O)[C@@H](NC(=O)[C@H](CCCNC(=N)N)NC(=O)[C@@H](NC(=O)[C@H](CCCNC(=N)N)NC(=O)[C@H](Cc1c[nH]c2ccccc12)NC(=O)[C@H](CCCNC(=N)N)NC(=O)[C@H](Cc1c[nH]c2ccccc12)NC(=O)[C@H](CCCNC(=N)N)NC(=O)[C@@H](N)Cc1c[nH]c2ccccc12)C(c1ccccc1)c1ccccc1)C(c1ccccc1)c1ccccc1)C(=O)O [((DipR)2(WR)3)] (H-WRWRWR[Dip]R[Dip]R-OH)
Reply | 12.5 µM

Ask | Provide MIC value for the following molecule: N=C(N)NCCC[C@H](NC(=O)[C@@H](NC(=O)[C@H](CCCNC(=N)N)NC(=O)[C@H](Cc1c[nH]c2ccccc12)NC(=O)[C@H](CCCNC(=N)N)NC(=O)[C@H](Cc1c[nH]c2ccccc12)NC(=O)[C@H](CCCNC(=N)N)NC(=O)[C@H](Cc1c[nH]c2ccccc12)NC(=O)[C@H](CCCNC(=N)N)NC(=O)[C@@H](N)Cc1c[nH]c2ccccc12)C(c1ccccc1)c1ccccc1)C(=O)O [((DipR)(WR)4)] (H-WRWRWRWR[Dip]R-OH)
Reply | 12.5 µM

Ask | Provide MIC value for the following molecule: N=C(N)NCCC[C@@H]1NC(=O)[C@H](C(c2ccccc2)c2ccccc2)NC(=O)[C@H](CCCNC(=N)N)NC(=O)[C@H](C(c2ccccc2)c2ccccc2)NC(=O)[C@H](CCCNC(=N)N)NC(=O)[C@H](C(c2ccccc2)c2ccccc2)NC(=O)[C@H](CCCNC(=N)N)NC(=O)[C@H](C(c2ccccc2)c2ccccc2)NC(=O)[C@H](CCCNC(=N)N)NC(=O)[C@H](C(c2ccccc2)c2ccccc2)NC1=O [[DipR]5] (cyclo([Dip]R[Dip]R[Dip]R[Dip]R[Dip]R))
Reply | 25 µM

Ask | Provide MIC value for the following molecule: N=C(N)NCCC[C@@H]1NC(=O)[C@H](Cc2c[nH]c3ccccc23)NC(=O)[C@H](CCCNC(=N)N)NC(=O)[C@H](C(c2ccccc2)c2ccccc2)NC(=O)[C@H](CCCNC(=N)N)NC(=O)[C@H](C(c2ccccc2)c2ccccc2)NC(=O)[C@H](CCCNC(=N)N)NC(=O)[C@H](C(c2ccccc2)c2ccccc2)NC(=O)[C@H](CCCNC(=N)N)NC(=O)[C@H](C(c2ccccc2)c2ccccc2)NC1=O [[(DipR)4(WR)]] (cyclo([Dip]R[Dip]R[Dip]R[Dip]RWR))
Reply | 25 µM

Ask | Provide MIC value for the following molecule: N=C(N)NCCC[C@@H]1NC(=O)[C@H](Cc2c[nH]c3ccccc23)NC(=O)[C@H](CCCNC(=N)N)NC(=O)[C@H](C(c2ccccc2)c2ccccc2)NC(=O)[C@H](CCCNC(=N)N)NC(=O)[C@H](C(c2ccccc2)c2ccccc2)NC(=O)[C@H](CCCNC(=N)N)NC(=O)[C@H](C(c2ccccc2)c2ccccc2)NC(=O)[C@H](CCCNC(=N)N)NC(=O)[C@H](Cc2c[nH]c3ccccc23)NC1=O [[(DipR)3(WR)2]] (cyclo([Dip]R[Dip]R[Dip]RWRWR))
Reply | 12.5 µM

Ask | Provide MIC value for the following molecule: N=C(N)NCCC[C@H](NC(=O)[C@H](CCCNC(=N)N)NC(=O)[C@@H](NC(=O)[C@H](CCCNC(=N)N)NC(=O)[C@@H](NC(=O)[C@H](CCCNC(=N)N)NC(=O)[C@@H](NC(=O)[C@H](CCCNC(=N)N)NC(=O)[C@@H](N)C(c1ccccc1)c1ccccc1)C(c1ccccc1)c1ccccc1)C(c1ccccc1)c1ccccc1)C(c1ccccc1)c1ccccc1)C(=O)O [(DipR)4R] (H-[Dip]R[Dip]R[Dip]R[Dip]RR-OH)
Reply | 6.3 µM
